Each recorded value in this set is attributed to patent US20240002542A1.

Some binders, each annotated with its measured koff.
- target-entity: T1, hGP130-his (Sino Biological, Catalog #10974) (human, UniProt P40189 23-619)
- T1 construct: Bought his-tagged cytokine receptor used as SPR analyte; also called human gp130 receptor subunit; IL6 receptor beta subunit; not shown: his tag
- T1 sequence: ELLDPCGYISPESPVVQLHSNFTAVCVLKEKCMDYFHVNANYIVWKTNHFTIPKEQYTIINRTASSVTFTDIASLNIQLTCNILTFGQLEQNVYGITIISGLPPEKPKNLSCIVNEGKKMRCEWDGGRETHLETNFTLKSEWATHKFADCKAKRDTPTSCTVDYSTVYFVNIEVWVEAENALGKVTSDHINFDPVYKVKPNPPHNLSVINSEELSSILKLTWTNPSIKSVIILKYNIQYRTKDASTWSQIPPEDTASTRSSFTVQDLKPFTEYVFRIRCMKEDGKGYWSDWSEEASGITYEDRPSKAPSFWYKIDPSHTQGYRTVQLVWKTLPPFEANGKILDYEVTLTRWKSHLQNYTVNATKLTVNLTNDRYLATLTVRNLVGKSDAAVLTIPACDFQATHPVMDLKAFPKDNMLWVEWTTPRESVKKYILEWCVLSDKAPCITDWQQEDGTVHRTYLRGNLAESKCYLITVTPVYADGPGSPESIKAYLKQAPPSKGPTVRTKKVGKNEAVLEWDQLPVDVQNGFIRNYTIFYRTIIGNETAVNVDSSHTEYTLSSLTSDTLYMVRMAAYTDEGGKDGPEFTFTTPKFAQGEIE
- assay-comment: SPR Biacore T200, hgp130 arm
measured-property: koff (s⁻¹)

binder="17-DR594 (SEQ ID NO. 235), anti-hGP130 Mono-Fc VHH (Fc fusion, Mono-Fc VHH ligand captured on a Protein A chip; not shown: mono-Fc part) QVQLQESGGGSVQAGGSLRLSCVASASTYCTYDMHWYRQAPGKGREFVSAIDSDGTTRYADSVKGRFTISQGTAKNTVYLQMNSLQPEDTAMYYCKTVCVVGSRWSDYWGQGTQVTVSS" unit_abbrev=s⁻¹ experimental_value=0.0095
binder="14-DR591 (SEQ ID NO. 232), anti-hGP130 Mono-Fc VHH (Fc fusion, Tested as Mono-Fc VHH ligand captured on a Protein A chip; not shown: mono-Fc part) QVQLQESGGGSVQAGGSLRLSCTASGAIASGYIDSRWCMAWFRQAPGKEREGVAAIWPGGGLTVYADSVKGRFTISRDHAKNTLYLQMNNLKPEDTAMYYCAAGSPRMCPSLEFGFDYWGQGTQVTVSS" unit_abbrev=s⁻¹ experimental_value=0.0019
binder="18-DR595 (SEQ ID NO. 236), anti-hGP130 Mono-Fc VHH (Fc fusion, Mono-Fc VHH ligand captured on a Protein A chip; not shown: mono-Fc part) QVQLQESGGGSVQAGGSLTLSCAASEYAYSTCNMGWYRQAPGKERELVSAFISDGSTYYADSVKGRFTITRDNAKNTVYLQMNSLKPEDTAIYYCSANCYRRLRNYWGQGTQVTVSS" unit_abbrev=s⁻¹ experimental_value=0.0073
binder="16-DR593 (SEQ ID NO. 234), anti-hGP130 Mono-Fc VHH (Fc fusion, Mono-Fc VHH ligand captured on a Protein A chip; not shown: mono-Fc part) QVQLQESGGGSVQAGGSLRLSCAASGYPYSNGYMGWFRQAPGKEREGVATIYTGDGRTYYADSVKGRFTISRDNAKNTVDLQMSSLKPEDTAMYYCAARAAPLYSSGSPLTRARYNVWGQGTQVTVSS" unit_abbrev=s⁻¹ experimental_value=0.021
